- target-or-system: recombinant soluble homotrimeric HA of A/Vietnam/1203/04 (H5N1) (Influenza A virus A/VietNam/1203/2004(H5N1))
- method-summary: trimeric HA microarray, transfection supernatant set 2
- measurement-setup: remark: other sources report otherwise
quantity-kind: Trimeric HA Binding: RLU (RLU)
# value in RLU; strip the unit string

// known answers, use as guide
# binder, readout-value
measured = [
    ("TCN-528 (5087_P17) (antibody, V domains shown) VH: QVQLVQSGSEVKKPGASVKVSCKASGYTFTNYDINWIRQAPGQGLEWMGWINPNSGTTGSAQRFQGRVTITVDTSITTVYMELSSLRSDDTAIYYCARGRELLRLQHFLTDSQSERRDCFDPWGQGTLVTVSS VL: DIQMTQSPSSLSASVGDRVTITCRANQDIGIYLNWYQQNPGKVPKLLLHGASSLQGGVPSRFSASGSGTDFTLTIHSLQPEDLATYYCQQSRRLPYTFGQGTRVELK", 23300),
    ("TCN-563 (5237_B21) (antibody, V domains shown) VH: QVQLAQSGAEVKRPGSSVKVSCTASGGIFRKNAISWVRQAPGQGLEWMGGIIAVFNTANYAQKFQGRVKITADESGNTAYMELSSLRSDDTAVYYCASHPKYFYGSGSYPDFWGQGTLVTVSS VL: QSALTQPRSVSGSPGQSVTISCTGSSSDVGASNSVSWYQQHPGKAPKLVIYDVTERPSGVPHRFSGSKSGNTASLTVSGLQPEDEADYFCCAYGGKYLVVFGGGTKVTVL", 31500),
]

Here is another binder to look at.
Record request: Trimeric HA Binding: RLU value, item TCN-523 (5248_A17) (antibody, V domains shown) VH: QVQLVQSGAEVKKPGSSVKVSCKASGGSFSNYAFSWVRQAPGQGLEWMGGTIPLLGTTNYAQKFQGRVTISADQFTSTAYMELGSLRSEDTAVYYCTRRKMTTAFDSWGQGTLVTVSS VL: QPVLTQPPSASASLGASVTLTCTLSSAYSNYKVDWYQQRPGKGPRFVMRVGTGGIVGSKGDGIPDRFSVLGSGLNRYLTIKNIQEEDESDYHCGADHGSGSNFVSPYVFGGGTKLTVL
26200
